# assay.system: BuChE from equine serum (Equus caballus, UniProt P81908)
# Construct: BuChE from equine serum (C4290-1KU; Sigma)
# Sequence (P81908 whole entry): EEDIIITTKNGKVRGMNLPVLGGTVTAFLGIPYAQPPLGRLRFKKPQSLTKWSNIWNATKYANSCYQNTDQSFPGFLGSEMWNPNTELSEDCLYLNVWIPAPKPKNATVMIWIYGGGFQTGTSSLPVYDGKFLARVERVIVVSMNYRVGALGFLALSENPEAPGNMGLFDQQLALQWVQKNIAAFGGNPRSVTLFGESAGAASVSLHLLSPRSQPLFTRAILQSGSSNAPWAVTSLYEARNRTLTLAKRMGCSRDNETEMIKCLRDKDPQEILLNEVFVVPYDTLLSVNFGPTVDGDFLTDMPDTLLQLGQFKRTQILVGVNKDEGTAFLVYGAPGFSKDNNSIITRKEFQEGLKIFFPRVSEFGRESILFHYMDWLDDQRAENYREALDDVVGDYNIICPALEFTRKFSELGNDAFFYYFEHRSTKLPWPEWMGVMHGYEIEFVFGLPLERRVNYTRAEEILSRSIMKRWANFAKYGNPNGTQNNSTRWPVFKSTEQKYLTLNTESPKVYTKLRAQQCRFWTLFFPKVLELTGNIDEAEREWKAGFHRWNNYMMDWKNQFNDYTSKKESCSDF
# method.description: eqBuChE inhibition assay (Ellman's method)
# condition.summary: BuChE from horse serum; mean ± SEM
Entries whose IC50 is below 600 nM take label 1; entries at or above 600 nM take label 0.

Past entries and their recorded results:
> print(dat)
                                   compound                              assay.system  label.value
1  O=S(=O)(F)/C(I)=C/C=C/c1ccccc1 [Compound C1, δ-phenyl-α-I-dienyl sulphonyl fluoride]  BuChE from equine serum (Equus caballus, UniProt P81908)      label 0
2  O=S(=O)(F)C(Br)=CC=Cc1ccccc1 [Compound A1, δ-phenyl-α-Br-dienyl sulphonyl fluoride]  BuChE from equine serum (Equus caballus, UniProt P81908)      label 1
3               O=S(=O)(F)C(Br)=CC=Cc1cccs1  BuChE from equine serum (Equus caballus, UniProt P81908)      label 1

# TODO verify IC50 < 600 nM strictly for this compound: CCc1ccc(/C(=C\C=C\c2ccccc2)S(=O)(=O)F)cc1 [Compound D1]
label 0

Answer whether the compound O=S(=O)(F)/C(I)=C/C=C/c1ccc(Br)cc1 has IC50 strictly less than 600 nM
label 1

Please determine if O=S(=O)(F)/C(I)=C/C=C/c1ccc(F)cc1 is below 600 nM in terms of IC50.
label 1

Input O=S(=O)(F)/C(C#Cc1cccc(Br)c1)=C/C=C/c1ccccc1 ; condition: IC50 strictly below 600 nM. Does it hold?
label 0

Please let me know if O=S(=O)(F)/C(Cl)=C/C=C/c1ccccc1 shows IC50 below 600 nM.
label 1

---

# assay.system: BuChE from human serum (hBuChE) (Homo sapiens, UniProt P06276)
# Construct: BuChE from human serum (hBuChE); purchased Sigma B4186; host or cells: human serum
# Sequence (P06276 29-602): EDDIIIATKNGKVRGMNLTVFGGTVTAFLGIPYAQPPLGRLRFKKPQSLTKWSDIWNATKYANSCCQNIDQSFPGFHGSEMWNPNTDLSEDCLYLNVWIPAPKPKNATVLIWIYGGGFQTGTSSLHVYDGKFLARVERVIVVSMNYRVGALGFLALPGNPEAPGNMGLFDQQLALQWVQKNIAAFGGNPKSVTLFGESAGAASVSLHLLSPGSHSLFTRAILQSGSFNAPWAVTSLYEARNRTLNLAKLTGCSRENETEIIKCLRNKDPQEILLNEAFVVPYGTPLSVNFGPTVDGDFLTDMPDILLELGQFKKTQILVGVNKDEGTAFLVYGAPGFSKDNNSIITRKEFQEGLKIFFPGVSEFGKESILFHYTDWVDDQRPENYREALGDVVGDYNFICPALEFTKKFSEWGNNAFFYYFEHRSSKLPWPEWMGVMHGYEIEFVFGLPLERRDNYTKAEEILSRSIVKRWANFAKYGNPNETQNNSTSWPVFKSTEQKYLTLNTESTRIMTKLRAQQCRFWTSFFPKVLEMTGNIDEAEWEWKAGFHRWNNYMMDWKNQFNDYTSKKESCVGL
# method.description: hBuChE inhibition assay (Ellman's assay)
# Format: biochemical
# condition.summary: mean ± SEM
endpoint.label: pIC50
Answers are plain numbers, as −log10 of the molar value.

# get_value(readout='pIC50', item= COc1ccccc1C=CC=C(Br)S(=O)(=O)F )
5.44

---

Could you please report measured inhibition at 20 µM for the items listed next?
# assay.system: AChE from electric eel (Electrophorus electricus)
# Construct: assays were performed on AChE from electric eel (C3389-500UN; Sigma); purchased Sigma C3389-500UN
# Sequence (O42275 24-633): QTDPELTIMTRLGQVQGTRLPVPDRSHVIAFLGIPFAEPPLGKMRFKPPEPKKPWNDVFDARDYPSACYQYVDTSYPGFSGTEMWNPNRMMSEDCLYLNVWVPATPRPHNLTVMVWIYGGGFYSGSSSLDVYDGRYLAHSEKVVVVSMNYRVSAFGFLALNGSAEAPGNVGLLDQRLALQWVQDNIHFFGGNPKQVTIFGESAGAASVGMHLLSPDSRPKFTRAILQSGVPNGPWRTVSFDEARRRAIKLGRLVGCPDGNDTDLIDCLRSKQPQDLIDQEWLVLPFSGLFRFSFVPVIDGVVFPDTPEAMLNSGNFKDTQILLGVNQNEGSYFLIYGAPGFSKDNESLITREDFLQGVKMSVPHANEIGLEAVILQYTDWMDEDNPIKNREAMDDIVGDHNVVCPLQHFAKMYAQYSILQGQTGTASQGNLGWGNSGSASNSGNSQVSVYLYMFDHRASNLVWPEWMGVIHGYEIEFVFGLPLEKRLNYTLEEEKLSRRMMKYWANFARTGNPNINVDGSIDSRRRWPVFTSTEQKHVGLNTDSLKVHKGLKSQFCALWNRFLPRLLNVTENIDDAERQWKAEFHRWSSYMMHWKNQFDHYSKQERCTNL
# method.description: EeAChE inhibition assay (Ellman's method)
# Format: biochemical
# condition.summary: read-out: AChE % inhibition at 20 µM; AChE from electric eel; 20 µM; na = no inhibitory activity at 20 µM
Numbers only, in %.

The cases that follow already have their inhibition at 20 µM on record.
> print(dat)
                                   compound       endpoint.label  units.label  experimental.value
1  O=S(=O)(F)C(Br)=CC=Cc1ccc(-c2ccccc2)cc1 [Compound A7]  inhibition at 20 µM            %                11.9
2  O=S(=O)(F)/C(I)=C/C=C/c1ccc(F)cc1 [Compound C2]  inhibition at 20 µM            %                  17
3  O=S(=O)(F)/C(I)=C/C=C/c1ccccc1 [Compound C1, δ-phenyl-α-I-dienyl sulphonyl fluoride]  inhibition at 20 µM            %                23.4
4  Cc1ccc(C#C/C(=C\C=C\c2ccccc2)S(=O)(=O)F)cc1 [Compound D12]  inhibition at 20 µM            %                43.5
5  O=S(=O)(F)/C(C#Cc1ccsc1)=C/C=C/c1ccccc1 [Compound D13]  inhibition at 20 µM            %                14.7

Report inhibition at 20 µM for every entry below.
1. O=S(=O)(F)/C(I)=C/C=C/c1cccc(C(F)(F)F)c1 [Compound C6]
2. Cc1ccccc1C=CC=C(Br)S(=O)(=O)F [Compound A9]
3. COc1ccc(/C=C/C=C(\Cl)S(=O)(=O)F)cc1 [Compound B4]
4. O=S(=O)(F)C(Br)=CC=Cc1cccc(Cl)c1 [Compound A14]

1. 24
2. 23.2
3. 30.1
4. 17.9
